target: EGFR L858R (Homo sapiens, UniProt P00533, L858R); construct: purchased Carna Bio; test: Inhibition of EGFR L858R biochemical enzymatic activity (HTRF); conditions: 1 mM ATP, 1 h at room temperature, read-out: IC50 @L858R
Sequence (P00533 25-1210 L858R): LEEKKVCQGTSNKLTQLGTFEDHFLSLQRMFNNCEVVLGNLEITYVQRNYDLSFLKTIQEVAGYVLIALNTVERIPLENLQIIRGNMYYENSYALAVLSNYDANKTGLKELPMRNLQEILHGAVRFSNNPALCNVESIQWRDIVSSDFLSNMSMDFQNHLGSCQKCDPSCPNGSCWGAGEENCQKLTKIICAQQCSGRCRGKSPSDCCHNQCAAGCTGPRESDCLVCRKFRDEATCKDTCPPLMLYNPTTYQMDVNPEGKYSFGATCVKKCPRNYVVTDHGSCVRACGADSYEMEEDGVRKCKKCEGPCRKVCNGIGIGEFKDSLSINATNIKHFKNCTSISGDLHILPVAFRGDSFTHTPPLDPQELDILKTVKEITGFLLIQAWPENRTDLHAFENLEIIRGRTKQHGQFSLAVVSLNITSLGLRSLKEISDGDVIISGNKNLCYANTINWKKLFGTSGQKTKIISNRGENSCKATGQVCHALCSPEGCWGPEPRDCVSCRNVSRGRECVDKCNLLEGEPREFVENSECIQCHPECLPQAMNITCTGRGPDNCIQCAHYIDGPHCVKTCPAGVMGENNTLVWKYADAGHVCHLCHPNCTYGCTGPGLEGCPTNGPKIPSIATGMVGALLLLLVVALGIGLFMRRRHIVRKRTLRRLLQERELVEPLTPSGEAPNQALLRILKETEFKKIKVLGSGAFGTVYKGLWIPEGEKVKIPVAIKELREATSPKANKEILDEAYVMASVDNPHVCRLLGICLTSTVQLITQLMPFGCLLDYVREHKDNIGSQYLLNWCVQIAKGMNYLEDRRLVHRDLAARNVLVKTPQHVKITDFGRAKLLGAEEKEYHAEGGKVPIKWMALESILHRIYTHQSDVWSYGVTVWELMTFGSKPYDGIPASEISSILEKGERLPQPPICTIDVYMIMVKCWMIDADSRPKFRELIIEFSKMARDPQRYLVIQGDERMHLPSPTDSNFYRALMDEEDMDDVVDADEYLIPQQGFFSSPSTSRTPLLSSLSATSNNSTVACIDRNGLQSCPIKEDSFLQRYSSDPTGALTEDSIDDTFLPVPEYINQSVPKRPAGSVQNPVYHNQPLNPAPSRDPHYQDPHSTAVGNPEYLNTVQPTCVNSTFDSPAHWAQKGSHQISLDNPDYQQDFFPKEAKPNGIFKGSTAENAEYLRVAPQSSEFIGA
recorded_endpoint: pIC50
Entry type: numeric. Quantity: pIC50, the -log10 of concentration in molar units.

compound	pIC50
Cc1cc2cc(n1)-c1cnn(C)c1OCCN1CC3CCC(C3)(C1)n1c(nc3ccc(N4CCC(N5CCN(C)CC5)C4)cc31)NC2=O (single isomer, unassigned) [Example B49B]	7.77

// `Cc1cc2cc(n1)-c1cnn(C)c1OCCC[C@@H](C)Cn1c(nc3ccc4c(c31)CCN(CCN(C)C)C4)NC2=O` : pIC50 value = 7.36

Noted for `Cc1cc2cc(n1)-c1cnn(C)c1OCCN1CC3CCC(CC3)(C1)n1c(nc3ccc(N(C)CCN(C)C)cc31)NC2=O` : its pIC50 reads 6.71

Query Cc1cc2cc(n1)-c1cnn(C)c1OCCN1CC3CCC(C3)(C1)n1c(nc3ccc(N(C)CCN(C)C)cc31)NC2=O (single isomer, unassigned) [Example B47B] yields pIC50 of 7.23

// Cc1cc2cc(n1)-c1cnn(C)c1OCCN1CC3CCC(CC3)(C1)n1c(nc3ccc(N4CCC5(CCN(C)CC5)C4)cc31)NC2=O [Example B38] : pIC50 value = 6.25

Entry under test: Cc1cc2cc(n1)-c1cnn(C)c1OCCN1CC3CCC(C3)(C1)n1c(nc3ccc(N4CC[C@@H](N(C)C)C4)cc31)NC2=O (single isomer, unassigned) [Example B42B] . Its pIC50 was 7.29

Field pIC50 (entry `Cc1cc2cc(n1)-c1cnn(C)c1OCCN1CC3CCC(CC3)(C1)n1c(nc3ccc(N4CCN(C5CC5)CC4)cc31)NC2=O` ) reads 6.13

pIC50 measured on `Cc1cc2cc(n1)-c1cnn(C)c1OCCN1CC3CCC(CC3)(C1)n1c(nc3ccc(N(C)CCCN(C)C)cc31)NC2=O` = 6.67
